target: KCNE1; assay: pooled miR-30 sensor sort-seq; sequence = guide strand; details: shRNA; note: reference of the scale not given here
reported.property: sensor-assay potency score (higher = more potent)
Provide a numeric answer; units are not to be included.

{"item.sequence": "TTTTCAACGACATAGCACGACC", "assayed.system": "KCNE1", "observed.result": -1.08}
{"item.sequence": "TCGGACTCGATGTAGACGTTGA", "assayed.system": "KCNE1", "observed.result": -0.164}
{"item.sequence": "TTTAGAGAAACAGTGAAACAGT", "assayed.system": "KCNE1", "observed.result": -0.257}
{"item.sequence": "TAGAGAAACAGTGAAACAGTGT", "assayed.system": "KCNE1", "observed.result": 0.334}
{"item.sequence": "TCAACGACATAGCACGACCTGT", "assayed.system": "KCNE1", "observed.result": -0.979}

Consider now this further sequence.
Lookup: Consider the sequence shown here: TTGTCCTTCTCTTGCCAGGCAT What is its recorded sensor-assay potency score (higher = more potent)?
Found: -1.07
